Tested on: Plutella xylostella
Test: Plutella xylostella greenhouse spray test on cauliflower and Bt cauliflower (cry9C)
Assay type: in vivo
Conditions: 10 g active substance/ha; 4 DAA; cauliflower
Would you mind telling me the reported % mortality of each entry?

q: # value lookup — system Plutella xylostella, readout % mortality, item "CCc1nn(C)c(C(=O)NCc2ccc(Oc3ccc(C)cc3)cc2)c1Cl"
a: 0%

q: Form field: % mortality recorded for "CS/C(C)=N\OC(=O)N(C)SN(C)C(=O)O/N=C(\C)SC" with Plutella xylostella (enter value)
a: 0%

q: Give Plutella xylostella % mortality for "C/C(=N\C#N)N(C)Cc1ccc(Cl)nc1"
a: 0%

q: Plutella xylostella / % mortality / N#Cc1nn(-c2c(Cl)cc(C(F)(F)F)cc2Cl)c(N)c1[S+]([O-])C(F)(F)F (stereo not shown) : value?
a: 20%
